Could you please report measured MIC50 for the items listed next?
Test system: Rhodotorula mucilaginosa
ASSAY EXPLANATION: Antimicrobial activity against Rhodotorula mucilaginosa by broth microdilution method
Assay type: functional
Field format: number, assumed µg/mL, no unit text.

[ask] Hello, I am looking for reported MIC50 with Rhodotorula mucilaginosa for C[C@@H](c1ncncc1F)[C@](O)(Cn1cncn1)c1ccc(F)cc1F . Could you help?
[reply] 4

[ask] Same lookup for CC[C@@H]([C@H](C)O)n1ncn(-c2ccc(N3CCN(c4ccc(OC[C@@H]5CO[C@@](Cn6cncn6)(c6ccc(F)cc6F)C5)cc4)CC3)cc2)c1=O , please.
[reply] 2

[ask] Can you handle Nc1nc(=O)[nH]cc1F next?
[reply] 0.25

----------
Test system: Aspergillus flavus
ASSAY EXPLANATION: Antimicrobial activity against Aspergillus flavus by broth microdilution method
Type: functional
Assign MIC50 to each entry below.
Return type: number; implicit unit µg/mL.

[ask] # value lookup — system Aspergillus flavus, readout MIC50, item C[C@@H](c1ncncc1F)[C@](O)(Cn1cncn1)c1ccc(F)cc1F
[reply] 1

[ask] What do you have for CC[C@@H]([C@H](C)O)n1ncn(-c2ccc(N3CCN(c4ccc(OC[C@@H]5CO[C@@](Cn6cncn6)(c6ccc(F)cc6F)C5)cc4)CC3)cc2)c1=O ?
[reply] 0.12

----------
Tested on: Naganishia albida
ASSAY EXPLANATION: Antimicrobial activity against Cryptococcus albidus by broth microdilution method
Format: functional
VALUE TYPE: MIC50 (µg/mL)
Answer with a number only, understood to be in µg/mL.

[ask] Which MIC50 value is on record for OC(Cn1cncn1)(Cn1cncn1)c1ccc(F)cc1F ?
[reply] 16

[ask] Then this compound: CCC(C)n1ncn(-c2ccc(N3CCN(c4ccc(OCC5COC(Cn6cncn6)(c6ccc(Cl)cc6Cl)O5)cc4)CC3)cc2)c1=O (centres undefined)
[reply] 0.5

----------
Test system: Aspergillus sclerotiorum
ASSAY EXPLANATION: Antimicrobial activity against Aspergillus sclerotiorum by broth microdilution method
Format: functional
VALUE TYPE: MIC90

[ask] Query: MIC90; subject: CC[C@H](C)C[C@H](C)CCCCCCCCC(=O)N[C@H]1C[C@@H](O)[C@@H](NCCN)NC(=O)[C@@H]2[C@@H](O)CCN2C(=O)[C@H]([C@H](O)CCN)NC(=O)[C@H]([C@H](O)[C@@H](O)c2ccc(O)cc2)NC(=O)[C@@H]2C[C@@H](O)CN2C(=O)[C@H]([C@@H](C)O)NC1=O [CASPOFUNGIN]
[reply] 0.5 µg/mL

[ask] Now the compound C[C@@H]1[C@H](O)[C@@H](C)/C=C/C=C/C=C/C=C/C=C/C=C/C=C/[C@H](O[C@@H]2O[C@H](C)[C@@H](O)[C@H](N)[C@@H]2O)C[C@@H]2O[C@](O)(C[C@@H](O)C[C@@H](O)[C@H](O)CC[C@@H](O)C[C@@H](O)CC(=O)O[C@H]1C)C[C@H](O)[C@H]2C(=O)O [AMPHOTERICIN B]
[reply] > 16 µg/mL

[ask] And the next one, C[C@@H](c1ncncc1F)[C@](O)(Cn1cncn1)c1ccc(F)cc1F [VORICONAZOLE] ?
[reply] > 8 µg/mL

----------
System: Paecilomyces variotii
ASSAY EXPLANATION: Antimicrobial activity against Paecilomyces variotii by broth microdilution method
Type: functional
*1 amine or outer side, *2 acyl side, *3 side chain or, on linkers, in order; H or OH if unused. Where a SMILES comes first, the peptide text is derived from it. Bridges are numbered along the chain shown (N, C = ends). [ ]: non-standard residue; d: D form. The star is where a group is joined. pTerphenylCO(4''-OnC5H11) = CCCCCOc1ccc(-c2ccc(-c3ccc(C(=O)*)cc3)cc2)cc1; Orn(4R-OH,5R-OH) = O=C([C@H](C[C@@H](O)[C@@H](O)N[*:3])N[*:1])[*:2]; hTyr(3S-OH,4S-OH) = N[C@H](C(=O)O)[C@H](O)[C@@H](O)c1ccc(O)cc1; Pro(3S-OH,4S-Me) = C[C@H]1CN[C@H](C(=O)O)[C@H]1O; Hyp = O=C(O)[C@@H]1C[C@@H](O)CN1
VALUE TYPE: MIC50 (µg/mL)
Write the answer as a number in µg/mL, unit excluded.

[ask] Reported MIC50 for CCCCCOc1ccc(-c2ccc(-c3ccc(C(=O)N[C@H]4C[C@@H](O)[C@@H](O)NC(=O)[C@@H]5[C@@H](O)[C@@H](C)CN5C(=O)[C@H]([C@@H](C)O)NC(=O)[C@H]([C@H](O)[C@@H](O)c5ccc(O)cc5)NC(=O)[C@@H]5C[C@@H](O)CN5C(=O)[C@H]([C@@H](C)O)NC4=O)cc3)cc2)cc1 [ANIDULAFUNGIN] ({pTerphenylCO(4''-OnC5H11)}-[Orn(4R-OH,5R-OH)]T[Hyp][hTyr(3S-OH,4S-OH)]T[Pro(3S-OH,4S-Me)]; lactam 1-C) : what is it?
[reply] 0.03

[ask] Same lookup for CC[C@@H]([C@H](C)O)n1ncn(-c2ccc(N3CCN(c4ccc(OC[C@@H]5CO[C@@](Cn6cncn6)(c6ccc(F)cc6F)C5)cc4)CC3)cc2)c1=O , please.
[reply] 0.03

[ask] What would you report for C[C@@H]1[C@H](O)[C@@H](C)/C=C/C=C/C=C/C=C/C=C/C=C/C=C/[C@H](O[C@@H]2O[C@H](C)[C@@H](O)[C@H](N)[C@@H]2O)C[C@@H]2O[C@](O)(C[C@@H](O)C[C@@H](O)[C@H](O)CC[C@@H](O)C[C@@H](O)CC(=O)O[C@H]1C)C[C@H](O)[C@H]2C(=O)O ?
[reply] 0.03
